test system: Mycobacterium kansasii; test: Antimycobacterial activity against Mycobacterium kansasii CNCTC My 235/80 after 14 days by micromethod; type: functional; settings: CNCTC My 235/80, 336 h
Property: MIC (µM)
Only the number, expressed in µM, is required.

O=[N+]([O-])c1cc(-n2nnnc2SCc2ccc(Cl)cc2)cc([N+](=O)[O-])c1: 2
Nc1cc(-c2nnc(SCc3ccccc3)o2)cc([N+](=O)[O-])c1: 250
O=[N+]([O-])c1cc(-c2nnc(SCc3ccccc3)o2)cc([N+](=O)[O-])c1: 0.5

Ask: Form field: reported MIC of O=[N+]([O-])c1cc(-c2nnc(SCc3ccc(Cl)c(Cl)c3)o2)cc([N+](=O)[O-])c1
Result: 0.03

Ask: Form field: reported MIC of CC(=O)Oc1cc(-c2nnc(SCc3ccc(Cl)c(Cl)c3)o2)cc([N+](=O)[O-])c1
Result: 1000

Ask: Form field: reported MIC of O=[N+]([O-])c1cc(-c2nnc(SCc3ccc(Cl)c(Cl)c3)o2)cc(C(F)(F)F)c1
Result: 1

Ask: Form field: reported MIC of Nc1cc(-c2nnc(SCc3ccc(Cl)cc3)o2)cc([N+](=O)[O-])c1
Result: 250
